# systemUnderTest: T1, purified ALK protein (BLitz, Table 20) (Homo sapiens (Human), UniProt Q9UM73 19-1038, limits assumed)
# T1 construct: also called purified ALK proteins
# T1 sequence (Q9UM73 19-1038 limits assumed): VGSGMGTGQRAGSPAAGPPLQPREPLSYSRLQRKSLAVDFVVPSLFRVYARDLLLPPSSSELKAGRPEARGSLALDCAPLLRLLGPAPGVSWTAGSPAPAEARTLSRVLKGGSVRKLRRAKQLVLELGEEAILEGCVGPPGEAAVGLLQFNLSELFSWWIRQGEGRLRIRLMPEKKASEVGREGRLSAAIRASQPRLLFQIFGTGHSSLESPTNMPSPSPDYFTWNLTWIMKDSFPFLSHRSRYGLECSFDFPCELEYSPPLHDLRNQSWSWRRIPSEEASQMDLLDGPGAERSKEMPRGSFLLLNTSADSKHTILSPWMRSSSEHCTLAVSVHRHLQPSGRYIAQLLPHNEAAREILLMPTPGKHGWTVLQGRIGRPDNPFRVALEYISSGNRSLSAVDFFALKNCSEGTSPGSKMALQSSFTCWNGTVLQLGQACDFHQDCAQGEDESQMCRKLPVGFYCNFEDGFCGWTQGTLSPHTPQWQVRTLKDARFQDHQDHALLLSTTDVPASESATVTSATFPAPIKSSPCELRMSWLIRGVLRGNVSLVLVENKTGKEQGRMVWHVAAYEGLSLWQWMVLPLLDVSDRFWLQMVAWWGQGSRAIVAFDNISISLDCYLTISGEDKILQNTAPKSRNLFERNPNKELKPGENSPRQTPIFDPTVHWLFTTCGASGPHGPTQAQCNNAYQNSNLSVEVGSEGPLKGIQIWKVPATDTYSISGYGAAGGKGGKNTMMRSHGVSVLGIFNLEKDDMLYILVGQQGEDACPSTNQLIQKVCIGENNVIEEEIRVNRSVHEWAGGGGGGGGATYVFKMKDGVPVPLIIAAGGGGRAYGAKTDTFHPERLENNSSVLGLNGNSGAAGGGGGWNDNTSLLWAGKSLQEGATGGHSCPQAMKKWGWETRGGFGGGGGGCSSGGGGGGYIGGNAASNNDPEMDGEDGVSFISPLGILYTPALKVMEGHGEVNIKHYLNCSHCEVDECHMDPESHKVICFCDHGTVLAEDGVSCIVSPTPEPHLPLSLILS
# experimentDescription: BLI (BLitz), mAb on Protein A tip, purified ALK in solution
Kindly supply the reported Kd values for the records listed here.
Answers are plain numbers, in nM.

Solved entries (count: 2):
Ab429 (antibody, V domains shown, humanized) VH: EVQLVQSGAEVAKPGASVKLSCKASGYTFTSYWMHWVRQAPGQGLEWIGYIKPSSGYTKYNQKFKDKATLTADKSTSTAYMELRSLRSDDTAVYYCARDYYGSSSWFAYWGQGTLVTVSS VL: EIVMTQSPATLSTSPGERATLSCRASQSVSSNLAWYQQKPGQAPRALIYSASYRYSGVPARFSGSGSGTDFTLTISSVEPEDFAVYYCQQYNSYPYMYTFGQGTKLEIK ... 326
Ab387 (antibody, V domains shown, humanized) VH: QVQLVQSGAEVAKPGTSVKLSCKASGYTFTSYWMHWVKQAPGQGLEWIGYIKPSSGYTKYNQKFKDKVTLTADKSTSTAYMELSSLRSEDTAVYYCARDYYGSSSWFAYWGQGTLVTVSS VL: EIVMTQSPATLSTSPGERATLSCKASQNVGTNVAWYQQKPGQAPRALIYSASYRYSGVPARFSGSGSGTDFTLTISSVEPEDFAVYYCQQYNSYPYMYTFGQGTKLEIK ... 158

Let's switch to this binder now.
Ask: What measured Kd goes with Ab426 (antibody, V domains shown, humanized) VH: EVQLVQSGAEVKKPGTSVKLSCKASGYTFTSYWMHWVRQARGQRLEWIGYIKPSSGYTKYAQKFQERVTLTADKSTSTAYMELSSLRSEDTAVYYCARDYYGSSSWFAYWGQGTLVTVSS VL: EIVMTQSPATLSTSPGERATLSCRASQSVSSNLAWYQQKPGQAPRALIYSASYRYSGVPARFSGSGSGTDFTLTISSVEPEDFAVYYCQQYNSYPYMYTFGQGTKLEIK ?
Reply: 868
